Reported viability, T/C by item:
Test system: SW 1271 complex tumor spheroid viability
Test: Anticancer human tumor SW 1271 cell line growth inhibition;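 note: spheroids exposed to agents for seven days before readout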;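 for viability, T/C: percent of DMSO vehicle control luminescence so 100% = vehicle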
Conditions: second compound 0.03 µM; first compound 0.1 µM; stronger effect = lower value
Numbers only; they are read as %.

Compound	Tgt	Readout value
CC1COCCN1c1cc(-c2ccnn2C)c2ccnc(-c3ccn[nH]3)c2n1 (stereo unspecified) + CC[C@@]1(O)C(=O)OCc2c1cc1n(c2=O)Cc2cc3c(CN(C)C)c(O)ccc3nc2-1	SW 1271 complex tumor spheroid viability	4.67
[2H]c1nc(C)nc([2H])c1-c1cc(NC[C@@H](C)c2cccc3c(C(=O)NC)ccnc23)ncn1 + CC[C@@]1(O)C(=O)OCc2c1cc1n(c2=O)Cc2cc3c(CN(C)C)c(O)ccc3nc2-1	SW 1271 complex tumor spheroid viability	35.3
COc1ccc([C@@H](O)c2cc(-c3ncnc4cc(N5CCOCC5)ccc34)c(F)cc2Cl)nn1 + CC[C@@]1(O)C(=O)OCc2c1cc1n(c2=O)Cc2cc3c(CN(C)C)c(O)ccc3nc2-1	SW 1271 complex tumor spheroid viability	31.1

Which value of viability, T/C has been reported for COc1cc(C)[nH]c(=O)c1CN1CCc2c(Cl)cc(C(OC)C3COC3)c(Cl)c2C1=O (stereo unspecified) + CC[C@@]1(O)C(=O)OCc2c1cc1n(c2=O)Cc2cc3c(CN(C)C)c(O)ccc3nc2-1 in the records?
28.5

Which value of viability, T/C has been reported for CC(C)n1c(=O)n(C)c2cnc3cc(F)c(-c4ccc(OCCCN5CCCCC5)nc4)cc3c21 + CC[C@@]1(O)C(=O)OCc2c1cc1n(c2=O)Cc2cc3c(CN(C)C)c(O)ccc3nc2-1 in the records?
17.7

Which value of viability, T/C has been reported for Cc1cc(C)c(CNC(=O)c2cc(-c3ccc(CN4CCOCC4)cc3)cc3c2cnn3C2CCCC2)c(=O)[nH]1 + CC[C@@]1(O)C(=O)OCc2c1cc1n(c2=O)Cc2cc3c(CN(C)C)c(O)ccc3nc2-1 in the records?
26.4

----------
Tested on: SW 1271 complex tumor spheroid viability
Test: Anticancer human tumor SW 1271 cell line growth inhibition; active = viability on the fitted dose curve at most 10% of control; inactive = the rest;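 note: spheroids exposed to agents for seven days before readout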
Settings: second compound 0.0003 µM; first compound 3 µM
Tick one outcome: label 1 (active), label 0 (inactive)

Example cases with answers are listed next.
Compound	Tgt	Category label
Cn1ncnc1[C@H]1c2n[nH]c(=O)c3cc(F)cc(c23)N[C@@H]1c1ccc(F)cc1 + COc1cc2c(cc1O)CCNC21CSC2c3c(OC(C)=O)c(C)c4c(c3C(COC1=O)N1C(O)C3Cc5cc(C)c(OC)c(O)c5C(C21)N3C)OCO4	SW 1271 complex tumor spheroid viability	label 0
O=C(c1cc(Cc2n[nH]c(=O)c3ccccc23)ccc1F)N1CCN(C(=O)C2CC2)CC1 + COc1cc2c(cc1O)CCNC21CSC2c3c(OC(C)=O)c(C)c4c(c3C(COC1=O)N1C(O)C3Cc5cc(C)c(OC)c(O)c5C(C21)N3C)OCO4	SW 1271 complex tumor spheroid viability	label 0
Cc1sc2c(c1C)C(c1ccc(Cl)cc1)=NC(CC(=O)Nc1ccc(O)cc1)c1nnc(C)n1-2 (centres undefined) + COc1cc2c(cc1O)CCNC21CSC2c3c(OC(C)=O)c(C)c4c(c3C(COC1=O)N1C(O)C3Cc5cc(C)c(OC)c(O)c5C(C21)N3C)OCO4	SW 1271 complex tumor spheroid viability	label 1

# input for lookup
// return assay outcome for CNCc1ccc(-c2cc(-c3nc(-c4ccc(S(=O)(=O)C(C)C)cc4)cnc3N)on2)cc1 + COc1cc2c(cc1O)CCNC21CSC2c3c(OC(C)=O)c(C)c4c(c3C(COC1=O)N1C(O)C3Cc5cc(C)c(OC)c(O)c5C(C21)N3C)OCO4
label 1

----------
Reported pIC50 by item:
Test system: SW 1271 complex tumor spheroid viability
Assay: Anticancer human tumor SW 1271 cell line growth inhibition;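 note: spheroids exposed to agents for seven days before readout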
Settings: curve of first compound; second compound 3.16 µM
Units for pIC50: none; it is -log10 of a concentration expressed in mol/L.

Which value of pIC50 has been reported for COc1ccc([C@@H](O)c2cc(-c3ncnc4cc(N5CCOCC5)ccc34)c(F)cc2Cl)nn1 + Cn1nnc2c(C(N)=O)ncn2c1=O in the records?
5.82

Which value of pIC50 has been reported for CC1COCCN1c1cc(-c2ccnn2C)c2ccnc(-c3ccn[nH]3)c2n1 (centres undefined) + Cn1nnc2c(C(N)=O)ncn2c1=O in the records?
7.15

Which value of pIC50 has been reported for Cc1sc2c(c1C)C(c1ccc(Cl)cc1)=NC(CC(=O)Nc1ccc(O)cc1)c1nnc(C)n1-2 (centres undefined) + Cn1nnc2c(C(N)=O)ncn2c1=O in the records?
7.07

----------
Tested on: SW 1271 complex tumor spheroid viability
Assay: Anticancer human tumor SW 1271 cell line growth inhibition;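 note: spheroids exposed to agents for seven days before readout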;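 for viability, T/C: percent of DMSO vehicle control luminescence so 100% = vehicle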
Conditions: second compound 10 µM; first compound 10 µM; stronger effect = lower value
Reported viability, T/C by item:
Numbers only; they are read as %.

Consider the following illustrative entries.
>>> df
                                   molecule  readout_value
0  CC1COCCN1c1cc(-c2ccnn2C)c2ccnc(-c3ccn[nH]3)c2n1 (stereo unspecified) + Cn1nnc2c(C(N)=O)ncn2c1=O           3.83
1  COc1cc(C)[nH]c(=O)c1CN1CCc2c(Cl)cc(C(OC)C3COC3)c(Cl)c2C1=O (stereo unspecified) + Cn1nnc2c(C(N)=O)ncn2c1=O           81.4
2  COc1ccc([C@@H](O)c2cc(-c3ncnc4cc(N5CCOCC5)ccc34)c(F)cc2Cl)nn1 + Cn1nnc2c(C(N)=O)ncn2c1=O           10.9
3  Cc1cc(C)c(CNC(=O)c2cc(-c3ccc(CN4CCOCC4)cc3)cc3c2cnn3C2CCCC2)c(=O)[nH]1 + Cn1nnc2c(C(N)=O)ncn2c1=O           76.2
4  CC(C)n1c(=O)n(C)c2cnc3cc(F)c(-c4ccc(OCCCN5CCCCC5)nc4)cc3c21 + Cn1nnc2c(C(N)=O)ncn2c1=O           41.6

Please look at the following molecule next.
Checklist item: viability, T/C tested on SW 1271 complex tumor spheroid viability, entry [2H]c1nc(C)nc([2H])c1-c1cc(NC[C@@H](C)c2cccc3c(C(=O)NC)ccnc23)ncn1 + Cn1nnc2c(C(N)=O)ncn2c1=O , value?
81.1

----------
Test system: SW 1271 complex tumor spheroid viability
Test: Anticancer human tumor SW 1271 cell line growth inhibition;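 note: spheroids exposed to agents for seven days before readout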;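 for viability, T/C: percent of DMSO vehicle control luminescence so 100% = vehicle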
Details: second compound 0.000949 µM; first compound 0.0316 µM; stronger effect = lower value
Reported viability, T/C by item:
Numbers only; they are read as %.

Consider the following illustrative entries.
Compound	Unit abbrev	viability, T/C
CC1COCCN1c1cc(-c2ccnn2C)c2ccnc(-c3ccn[nH]3)c2n1 (stereo unspecified) + COc1cc2c(cc1O)CCNC21CSC2c3c(OC(C)=O)c(C)c4c(c3C(COC1=O)N1C(O)C3Cc5cc(C)c(OC)c(O)c5C(C21)N3C)OCO4	%	3
CC(C)n1c(=O)n(C)c2cnc3cc(F)c(-c4ccc(OCCCN5CCCCC5)nc4)cc3c21 + COc1cc2c(cc1O)CCNC21CSC2c3c(OC(C)=O)c(C)c4c(c3C(COC1=O)N1C(O)C3Cc5cc(C)c(OC)c(O)c5C(C21)N3C)OCO4	%	4.24
COc1cc(C)[nH]c(=O)c1CN1CCc2c(Cl)cc(C(OC)C3COC3)c(Cl)c2C1=O (stereo unspecified) + COc1cc2c(cc1O)CCNC21CSC2c3c(OC(C)=O)c(C)c4c(c3C(COC1=O)N1C(O)C3Cc5cc(C)c(OC)c(O)c5C(C21)N3C)OCO4	%	5.93
COc1ccc([C@@H](O)c2cc(-c3ncnc4cc(N5CCOCC5)ccc34)c(F)cc2Cl)nn1 + COc1cc2c(cc1O)CCNC21CSC2c3c(OC(C)=O)c(C)c4c(c3C(COC1=O)N1C(O)C3Cc5cc(C)c(OC)c(O)c5C(C21)N3C)OCO4	%	2.95
[2H]c1nc(C)nc([2H])c1-c1cc(NC[C@@H](C)c2cccc3c(C(=O)NC)ccnc23)ncn1 + COc1cc2c(cc1O)CCNC21CSC2c3c(OC(C)=O)c(C)c4c(c3C(COC1=O)N1C(O)C3Cc5cc(C)c(OC)c(O)c5C(C21)N3C)OCO4	%	10.5

Please look at the following compound next.
Which value of viability, T/C has been reported for Cc1cc(C)c(CNC(=O)c2cc(-c3ccc(CN4CCOCC4)cc3)cc3c2cnn3C2CCCC2)c(=O)[nH]1 + COc1cc2c(cc1O)CCNC21CSC2c3c(OC(C)=O)c(C)c4c(c3C(COC1=O)N1C(O)C3Cc5cc(C)c(OC)c(O)c5C(C21)N3C)OCO4 in the records?
2.96

----------
Tested on: SW 1271 complex tumor spheroid viability
Test: Anticancer human tumor SW 1271 cell line growth inhibition; active means viability on the fitted dose curve at most 10% of control; inactive means the rest;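 note: spheroids exposed to agents for seven days before readout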
Settings: second compound 0.3 µM; first compound 0.3 µM
Tick one outcome: active, inactive

Example cases with answers are listed next.
Compound	Category label
Cn1ncnc1[C@H]1c2n[nH]c(=O)c3cc(F)cc(c23)N[C@@H]1c1ccc(F)cc1 + CC[C@@]1(O)C(=O)OCc2c1cc1n(c2=O)Cc2cc3c(CN(C)C)c(O)ccc3nc2-1	active
O=C(c1cc(Cc2n[nH]c(=O)c3ccccc23)ccc1F)N1CCN(C(=O)C2CC2)CC1 + CC[C@@]1(O)C(=O)OCc2c1cc1n(c2=O)Cc2cc3c(CN(C)C)c(O)ccc3nc2-1	inactive
CNCc1ccc(-c2cc(-c3nc(-c4ccc(S(=O)(=O)C(C)C)cc4)cnc3N)on2)cc1 + CC[C@@]1(O)C(=O)OCc2c1cc1n(c2=O)Cc2cc3c(CN(C)C)c(O)ccc3nc2-1	inactive

# input for lookup
// return assay outcome for Cc1sc2c(c1C)C(c1ccc(Cl)cc1)=NC(CC(=O)Nc1ccc(O)cc1)c1nnc(C)n1-2 (centres undefined) + CC[C@@]1(O)C(=O)OCc2c1cc1n(c2=O)Cc2cc3c(CN(C)C)c(O)ccc3nc2-1
active
